SYSTEM UNDER TEST: human recombinant serotonin (5-Hydroxytryptamine) 5-HT6 receptor (Homo sapiens, UniProt P50406)
Construct: expressed in transfected cells; host or cells: human HeLa cells
Sequence (P50406 whole entry): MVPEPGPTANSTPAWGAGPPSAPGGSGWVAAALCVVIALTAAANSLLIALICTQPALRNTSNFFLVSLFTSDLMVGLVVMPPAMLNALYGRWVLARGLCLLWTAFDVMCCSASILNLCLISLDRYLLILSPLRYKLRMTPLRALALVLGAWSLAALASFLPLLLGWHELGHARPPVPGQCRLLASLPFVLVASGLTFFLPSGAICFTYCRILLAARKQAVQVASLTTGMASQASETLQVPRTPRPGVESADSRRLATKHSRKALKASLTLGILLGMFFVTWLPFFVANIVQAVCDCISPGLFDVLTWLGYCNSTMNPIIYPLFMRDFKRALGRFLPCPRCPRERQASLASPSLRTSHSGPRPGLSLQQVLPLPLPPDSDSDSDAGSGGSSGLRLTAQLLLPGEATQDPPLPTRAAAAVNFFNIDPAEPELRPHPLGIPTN
PROCEDURE SUMMARY: Serotonin 5-HT6 radioligand binding assay ([3H]LSD)
EXPERIMENTAL CONDITIONS: 1.5 nM [3H]LSD, read-out: Percent Inhibition of ligand binding, Serotonin (1 μM) 5-HT6
Listed next: entries and their corresponding inhibition at 1 µM.
Kindly answer with a numeric value in %, unit omitted.

Reference set (3 entries):
COMPOUND: CN1CCc2c(c3cc(Cl)ccc3n2CC2(c3ccc(F)cc3)OCCO2)C1
UNIT TAG: %
inhibition at 1 µM: 104
//
COMPOUND: CNC(=O)CC(Cn1c2c(c3cc(C)ccc31)CN(C)CC2)c1ccc(F)cc1 (stereo not shown)
UNIT TAG: %
inhibition at 1 µM: 63
//
COMPOUND: CN1CCc2c(c3cc(Cl)ccc3n2CC2(c3ccc(Cl)cc3)OCCO2)C1
UNIT TAG: %
inhibition at 1 µM: 85

Incoming: What inhibition at 1 µM value was documented for this compound, Cc1ccc2c(c1)c1c(n2CC(CC(=O)O)c2ccc(F)cc2)CCN(C)C1 (stereo not shown) ?
Outgoing: -3

Incoming: What inhibition at 1 µM value was documented for this compound, Cc1ccc2c(c1)c1c(n2CC2(c3ccccc3)OCCO2)CCN(C)C1 ?
Outgoing: 102

Incoming: What inhibition at 1 µM value was documented for this compound, CCOC(=O)CC(Cn1c2c(c3cc(C)ccc31)CN(C)CC2)c1ccc(F)cc1 (stereo not shown) ?
Outgoing: 102

Incoming: What inhibition at 1 µM value was documented for this compound, Cc1ccc2c(c1)c1c(n2CC2(c3ccc(F)cc3)OCCO2)CCN(C)C1 ?
Outgoing: 103
